System: Enterococcus faecalis
Assay: Antibacterial activity against Enterococcus faecalis bc11148-2
Assay type: functional
Returns: string. Value is t if measured MIC is below 0.8 µg/mL, and f if it is greater than or equal to it.

Is it true that MIC reported for "C=C[C@]12OC(=O)N(CCCCn3ccc4c(N)cccc43)[C@@H]1[C@@H](C)C(=O)[C@H](C)C[C@@](C)(OC)[C@H](O[C@@H]1O[C@H](C)C[C@H](N(C)C)[C@H]1O)[C@@H](C)C(=O)[C@@H](C)C(=O)O[C@@H]2CC" is less than 0.8 µg/mL?
t

Is it true that MIC reported for "C=C[C@]12OC(=O)N(CCCCn3ccc4nc(C(C)=O)ccc43)[C@@H]1[C@@H](C)C(=O)[C@H](C)C[C@@](C)(OC)[C@H](O[C@@H]1O[C@H](C)C[C@H](N(C)C)[C@H]1O)[C@@H](C)C(=O)[C@@H](C)C(=O)O[C@@H]2CC" is less than 0.8 µg/mL?
f

Is it true that MIC reported for "C=C[C@]12OC(=O)N(CCCCn3cnc(-c4cnccn4)c3)[C@@H]1[C@@H](C)C(=O)[C@H](C)C[C@@](C)(OC)[C@H](O[C@@H]1O[C@H](C)C[C@H](N(C)C)[C@H]1O)[C@@H](C)C(=O)[C@@H](C)C(=O)O[C@@H]2CC" is less than 0.8 µg/mL?
t

Is it true that MIC reported for "C=C[C@]12OC(=O)N(CCCCn3cc(Cl)c4ncccc43)[C@@H]1[C@@H](C)C(=O)[C@H](C)C[C@@](C)(OC)[C@H](O[C@@H]1O[C@H](C)C[C@H](N(C)C)[C@H]1O)[C@@H](C)C(=O)[C@@H](C)C(=O)O[C@@H]2CC" is less than 0.8 µg/mL?
f

Is it true that MIC reported for "CC[C@H]1OC(=O)[C@H](C)[C@@H](O[C@H]2C[C@@](C)(OC)[C@@H](O)[C@H](C)O2)[C@H](C)[C@@H](O[C@@H]2O[C@H](C)C[C@H](N(C)C)[C@H]2O)[C@](C)(OC)C[C@@H](C)C(=O)[C@H](C)[C@@H](O)[C@]1(C)O" is less than 0.8 µg/mL?
f

###

Field: MIC. Provide a value for each of the compounds that follow.
System: Haemophilus influenzae
Experiment: Antibacterial activity against Haemophilus influenzae 2762
Type: functional
Write the numeric value and append its unit.

Return reported MIC; argument: "C=C[C@]12OC(=O)N(CCN(C)Cc3ccnc(-c4cccnc4)c3)[C@@H]1[C@@H](C)C(=O)[C@H](C)C[C@@](C)(OC)[C@H](O[C@@H]1O[C@H](C)C[C@H](N(C)C)[C@H]1O)[C@@H](C)C(=O)[C@@H](C)C(=O)O[C@@H]2CC"
3.13 µg/mL

Return reported MIC; argument: CC[C@H]1OC(=O)[C@H](C)C(=O)[C@H](C)[C@@H](O[C@@H]2O[C@H](C)C[C@H](N(C)C)[C@H]2O)[C@](C)(OC)C[C@@H](C)C(=O)[C@H](C)[C@H]2N(CCCCn3cnc(-c4cccnc4)c3)C(=O)O[C@]12C [TELITHROMYCIN]
0.4 µg/mL

Return reported MIC; argument: "C=C[C@]12OC(=O)N(CCCCn3cnc(-c4ccc(N(C)C)nc4)c3)[C@@H]1[C@@H](C)C(=O)[C@H](C)C[C@@](C)(OC)[C@H](O[C@@H]1O[C@H](C)C[C@H](N(C)C)[C@H]1O)[C@@H](C)C(=O)[C@@H](C)C(=O)O[C@@H]2CC"
1.56 µg/mL

Return reported MIC; argument: "C=C[C@]12OC(=O)N(CCCCn3cnc(-c4cncnc4)c3)[C@@H]1[C@@H](C)C(=O)[C@H](C)C[C@@](C)(OC)[C@H](O[C@@H]1O[C@H](C)C[C@H](N(C)C)[C@H]1O)[C@@H](C)C(=O)[C@@H](C)C(=O)O[C@@H]2CC"
1.56 µg/mL

Return reported MIC; argument: "C=C[C@]12OC(=O)N(CCCCc3cnc(-c4cccnc4)s3)[C@@H]1[C@@H](C)C(=O)[C@H](C)C[C@@](C)(OC)[C@H](O[C@@H]1O[C@H](C)C[C@H](N(C)C)[C@H]1O)[C@@H](C)C(=O)[C@@H](C)C(=O)O[C@@H]2CC"
1.56 µg/mL

Return reported MIC; argument: "C=C[C@]12OC(=O)N(CCCCn3cnc(-c4ccc(OC)nc4)c3C)[C@@H]1[C@@H](C)C(=O)[C@H](C)C[C@@](C)(OC)[C@H](O[C@@H]1O[C@H](C)C[C@H](N(C)C)[C@H]1O)[C@@H](C)C(=O)[C@@H](C)C(=O)O[C@@H]2CC"
1.56 µg/mL

Return reported MIC; argument: "C=C[C@]12OC(=O)N(CCCCn3cnc4ncccc43)[C@@H]1[C@@H](C)C(=O)[C@H](C)C[C@@](C)(OC)[C@H](O[C@@H]1O[C@H](C)C[C@H](N(C)C)[C@H]1O)[C@@H](C)C(=O)[C@@H](C)C(=O)O[C@@H]2CC"
0.78 µg/mL

Return reported MIC; argument: "C=C[C@]12OC(=O)N(CCCCn3cnc(-c4ccc(F)nc4)c3)[C@@H]1[C@@H](C)C(=O)[C@H](C)C[C@@](C)(OC)[C@H](O[C@@H]1O[C@H](C)C[C@H](N(C)C)[C@H]1O)[C@@H](C)C(=O)[C@@H](C)C(=O)O[C@@H]2CC"
1.56 µg/mL

Return reported MIC; argument: "C=C[C@]12OC(=O)N(CCN(C)Cc3cnc(-c4cccnc4)s3)[C@@H]1[C@@H](C)C(=O)[C@H](C)C[C@@](C)(OC)[C@H](O[C@@H]1O[C@H](C)C[C@H](N(C)C)[C@H]1O)[C@@H](C)C(=O)[C@@H](C)C(=O)O[C@@H]2CC"
3.13 µg/mL

Return reported MIC; argument: CC[C@H]1OC(=O)[C@H](C)[C@@H](O[C@H]2C[C@@](C)(OC)[C@@H](O)[C@H](C)O2)[C@H](C)[C@@H](O[C@@H]2O[C@H](C)C[C@H](N(C)C)[C@H]2O)[C@](C)(OC)C[C@@H](C)C(=O)[C@H](C)[C@@H](O)[C@]1(C)O [CLARITHROMYCIN]
0.78 µg/mL

Return reported MIC; argument: "C=C[C@]12OC(=O)N(CCCCc3ccc(-c4cccnc4)s3)[C@@H]1[C@@H](C)C(=O)[C@H](C)C[C@@](C)(OC)[C@H](O[C@@H]1O[C@H](C)C[C@H](N(C)C)[C@H]1O)[C@@H](C)C(=O)[C@@H](C)C(=O)O[C@@H]2CC"
3.13 µg/mL

Return reported MIC; argument: "C=C[C@]12OC(=O)N(CCCCn3cnc(-c4ccc(OC)nc4)c3)[C@@H]1[C@@H](C)C(=O)[C@H](C)C[C@@](C)(OC)[C@H](O[C@@H]1O[C@H](C)C[C@H](N(C)C)[C@H]1O)[C@@H](C)C(=O)[C@@H](C)C(=O)O[C@@H]2CC"
0.78 µg/mL

Return reported MIC; argument: "C=C[C@]12OC(=O)N(CCCCn3cnc(-c4ccc(C)nc4)c3)[C@@H]1[C@@H](C)C(=O)[C@H](C)C[C@@](C)(OC)[C@H](O[C@@H]1O[C@H](C)C[C@H](N(C)C)[C@H]1O)[C@@H](C)C(=O)[C@@H](C)C(=O)O[C@@H]2CC"
1.56 µg/mL

Return reported MIC; argument: "C=C[C@]12OC(=O)N(CCCCn3cnc(-c4cnccn4)c3)[C@@H]1[C@@H](C)C(=O)[C@H](C)C[C@@](C)(OC)[C@H](O[C@@H]1O[C@H](C)C[C@H](N(C)C)[C@H]1O)[C@@H](C)C(=O)[C@@H](C)C(=O)O[C@@H]2CC"
1.56 µg/mL

Return reported MIC; argument: "C=C[C@]12OC(=O)N(CCCC(C)(C)n3cnc4ncccc43)[C@@H]1[C@@H](C)C(=O)[C@H](C)C[C@@](C)(OC)[C@H](O[C@@H]1O[C@H](C)C[C@H](N(C)C)[C@H]1O)[C@@H](C)C(=O)[C@@H](C)C(=O)O[C@@H]2CC"
0.78 µg/mL

Return reported MIC; argument: "C=C[C@]12OC(=O)N(CCCCn3cnc(-c4cnc(C)cn4)c3)[C@@H]1[C@@H](C)C(=O)[C@H](C)C[C@@](C)(OC)[C@H](O[C@@H]1O[C@H](C)C[C@H](N(C)C)[C@H]1O)[C@@H](C)C(=O)[C@@H](C)C(=O)O[C@@H]2CC"
0.78 µg/mL

###

Tested on: Streptococcus pneumoniae
Experiment: Antibacterial activity against Streptococcus pneumoniae 280-962
Type: functional
quantityName: MIC

Return reported MIC; argument: "C=C[C@]12OC(=O)N(CCCCn3cnc4cccnc43)[C@@H]1[C@@H](C)C(=O)[C@H](C)C[C@@](C)(OC)[C@H](O[C@@H]1O[C@H](C)C[C@H](N(C)C)[C@H]1O)[C@@H](C)C(=O)[C@@H](C)C(=O)O[C@@H]2CC"
≤ 0.05 µg/mL

Return reported MIC; argument: "C=C[C@]12OC(=O)N(CCCCn3cnc(-c4cncnc4)c3)[C@@H]1[C@@H](C)C(=O)[C@H](C)C[C@@](C)(OC)[C@H](O[C@@H]1O[C@H](C)C[C@H](N(C)C)[C@H]1O)[C@@H](C)C(=O)[C@@H](C)C(=O)O[C@@H]2CC"
≤ 0.05 µg/mL
